Source of measurements: ChEMBL document CHEMBL2429758

Hi there, I'd appreciate the recorded fold change (FC) for every entry that follows.
# TESTED_ON: Nuclear factor erythroid 2-related factor 2 (Homo sapiens) (UniProt Q16236)
# Sequence (Q16236 whole entry): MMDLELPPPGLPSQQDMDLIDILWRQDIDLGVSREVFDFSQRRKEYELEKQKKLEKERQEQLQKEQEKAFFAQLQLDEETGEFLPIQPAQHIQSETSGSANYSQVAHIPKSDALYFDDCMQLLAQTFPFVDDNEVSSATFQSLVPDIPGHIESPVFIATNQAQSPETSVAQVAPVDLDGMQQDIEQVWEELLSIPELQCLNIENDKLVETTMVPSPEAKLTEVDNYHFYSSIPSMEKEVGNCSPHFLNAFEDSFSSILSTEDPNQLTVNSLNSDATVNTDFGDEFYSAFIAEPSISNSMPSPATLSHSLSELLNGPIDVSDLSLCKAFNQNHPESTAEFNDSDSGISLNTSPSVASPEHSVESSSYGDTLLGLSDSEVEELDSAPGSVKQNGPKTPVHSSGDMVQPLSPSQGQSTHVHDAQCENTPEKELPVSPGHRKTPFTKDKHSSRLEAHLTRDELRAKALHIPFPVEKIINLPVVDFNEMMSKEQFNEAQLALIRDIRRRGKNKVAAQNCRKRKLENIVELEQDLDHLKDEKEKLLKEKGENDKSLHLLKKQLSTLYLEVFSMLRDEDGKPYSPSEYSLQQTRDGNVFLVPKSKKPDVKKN
# MEASUREMENT_NOTES: Induction of Nrf2-mediated ARE activity in human HepG2-ARE-C8 cells at 1 uM after 12 hrs by luciferase reporter gene assay relative to control
# Type: cell-based
One number for each entry.

Value sought for every listed compound: fold change (FC).
1. COc1ccc2c(c1)C1CN/C(=C\C(=O)c3cccc(F)c3)C(=O)N1CC2 (stereo not given)
2. O=C(/C=C1\NCC2c3ccccc3CCN2C1=O)c1cccc(Br)c1 (stereo not given)
3. COc1cccc(C(=O)/C=C2\NCC3c4cc(OC)c(OC)cc4CCN3C2=O)c1 (stereo not given)
4. COc1cc2c(cc1OC)C1CN/C(=C\C(=O)c3ccccc3F)C(=O)N1CC2 (stereo not given)
5. O=C(/C=C1\NCC2c3ccccc3CCN2C1=O)c1cccc(F)c1 (stereo not given)
6. O=C(/C=C1\NCC2c3ccccc3CCN2C1=O)c1ccc(-c2ccccc2)cc1 (stereo not given)

Ans:
1: 7.23; 2: 8.97; 3: 0.95; 4: 0.95; 5: 9.99; 6: 1.41

###

Hi there, I'd appreciate the recorded fold change (FC) for every entry that follows.
# TESTED_ON: Nuclear factor erythroid 2-related factor 2 (Homo sapiens)
# MEASUREMENT_NOTES: Induction of Nrf2-mediated ARE activity in human HepG2-ARE-C8 cells at 5 uM after 12 hrs by luciferase reporter gene assay relative to control
# Type: cell-based
Answers are plain numbers.

For orientation, consider the following solved cases.
COc1ccc2c(c1)CCN1C(=O)/C(=C/C(=O)c3ccccc3F)NCC21 (centres undefined); 5.18
COc1ccc2c(c1)C1CN/C(=C\C(=O)c3cccc(F)c3)C(=O)N1CC2 (centres undefined); 16.9
O=C(/C=C1\NCC2c3ccccc3CCN2C1=O)c1cc(F)cc(F)c1 (centres undefined); 5.22

Value sought for every listed compound: fold change (FC).
1. COc1ccc2c(c1)C1CN/C(=C\C(=O)c3cccc([N+](=O)[O-])c3)C(=O)N1CC2 (centres undefined)
2. COc1cccc(C(=O)/C=C2\NCC3c4cc(OC)c(OC)cc4CCN3C2=O)c1 (centres undefined)

Ans:
1: 5.76; 2: 1.11

Value sought for every listed compound: fold change (FC).
1. COc1cc2c(cc1OC)C1CN/C(=C\C(=O)c3ccccc3)C(=O)N1CC2 (centres undefined)
2. O=C(/C=C1\NCC2c3ccccc3CCN2C1=O)c1ccccc1F (centres undefined)
3. COc1cc2c(cc1OC)C1CN/C(=C\C(=O)c3cccc([N+](=O)[O-])c3)C(=O)N1CC2 (centres undefined)
4. Cc1ccc(C(=O)/C=C2\NCC3c4ccccc4CCN3C2=O)cc1 (centres undefined)
5. COc1ccc2c(c1)C1CN/C(=C\C(=O)c3ccccc3)C(=O)N1CC2 (centres undefined)
6. COc1cc2c(cc1OC)C1CN/C(=C\C(=O)c3cccc(Cl)c3)C(=O)N1CC2 (centres undefined)
7. O=C(/C=C1\NCC2c3ccccc3CCN2C1=O)c1ccccc1 (centres undefined)

Ans:
[1.46, 16.5, 1.44, 4.42, 10.4, 1.15, 18.9]

Value sought for every listed compound: fold change (FC).
1. COc1cccc2c1CCN1C(=O)/C(=C/C(=O)c3ccccc3)NCC21 (centres undefined)
2. COc1ccc2c(c1)CCN1C(=O)/C(=C/C(=O)c3ccccc3)NCC21 (centres undefined)
3. O=C(/C=C1\NCC2c3ccccc3CCN2C1=O)c1ccccc1[N+](=O)[O-] (centres undefined)
4. COc1cccc2c1CCN1C(=O)/C(=C/C(=O)c3cccc(F)c3)NCC21 (centres undefined)
5. COc1cc2c(cc1OC)C1CN/C(=C\C(=O)c3ccccc3F)C(=O)N1CC2 (centres undefined)

Ans:
[6.89, 8.18, 2.41, 4.85, 0.97]

Value sought for every listed compound: fold change (FC).
1. C[S+]([O-])CCCCN=C=S (centres undefined)
2. O=C(/C=C1\NCC2c3ccccc3CCN2C1=O)c1ccccc1Cl (centres undefined)
3. O=C(/C=C1\NCC2c3ccccc3CCN2C1=O)c1cccc(C(F)(F)F)c1 (centres undefined)
4. COc1cccc(C(=O)/C=C2\NCC3c4cc(OC)ccc4CCN3C2=O)c1 (centres undefined)

Ans:
5.52
5.46
3.14
1.36

Value sought for every listed compound: fold change (FC).
1. O=C(/C=C1\NCC2c3ccccc3CCN2C1=O)c1ccc(F)cc1 (centres undefined)
2. O=C(/C=C1\NCC2c3ccccc3CCN2C1=O)c1cccc(Cl)c1 (centres undefined)

Ans:
1: 12.3; 2: 14

Value sought for every listed compound: fold change (FC).
1. COc1cc2c(cc1OC)C1CN/C(=C\C(=O)c3cccc(F)c3)C(=O)N1CC2 (centres undefined)
2. COc1ccc(C(=O)/C=C2\NCC3c4ccccc4CCN3C2=O)cc1OC (centres undefined)
3. O=C(/C=C1\NCC2c3ccccc3CCN2C1=O)c1ccc(Cl)cc1Cl (centres undefined)
4. COc1cccc(C(=O)/C=C2\NCC3c4ccccc4CCN3C2=O)c1 (centres undefined)
5. O=C(/C=C1\NCC2c3ccccc3CCN2C1=O)c1ccc(-c2ccccc2)cc1 (centres undefined)
6. O=C(/C=C1\NCC2c3ccccc3CCN2C1=O)c1ccc([N+](=O)[O-])cc1 (centres undefined)

Ans:
[1.68, 2.11, 1.78, 8.65, 1.69, 2.43]

###

# TESTED_ON: Nuclear factor erythroid 2-related factor 2 (Homo sapiens) (UniProt Q16236)
# MEASUREMENT_NOTES: Induction of Nrf2-mediated ARE activity in human HepG2-ARE-C8 cells at 0.1 uM after 12 hrs by luciferase reporter gene assay relative to control
# Format: cell-based
Would you please tag the item t when its fold change (FC) is 2 or above, and f when it is below?

Q: Quick check, fold change (FC) >= 2? O=C(/C=C1\NCC2c3ccccc3CCN2C1=O)c1cccc([N+](=O)[O-])c1 (stereo not drawn)
Ans: t

###

Hi there, I'd appreciate the recorded fold change (FC) for every entry that follows.
# TESTED_ON: Nuclear factor erythroid 2-related factor 2 (Homo sapiens) (UniProt Q16236)
# MEASUREMENT_NOTES: Induction of Nrf2-mediated ARE activity in human HepG2-ARE-C8 cells at 1 uM after 12 hrs by luciferase reporter gene assay relative to control
# Format: cell-based

For orientation, consider the following solved cases.
COc1ccc2c(c1)C1CN/C(=C\C(=O)c3cccc([N+](=O)[O-])c3)C(=O)N1CC2 (stereo not drawn); 3.08
COc1cccc2c1CCN1C(=O)/C(=C/C(=O)c3ccccc3F)NCC21 (stereo not drawn); 2.98

Here is the next item to consider.
Q: Specify reported fold change (FC) for the compound shown: COc1ccc2c(c1)CCN1C(=O)/C(=C/C(=O)c3cccc(F)c3)NCC21 (stereo not drawn)
Ans: 3.96

###

Hi there, I'd appreciate the recorded fold change (FC) for every entry that follows.
# TESTED_ON: UniProt:Q16236
# MEASUREMENT_NOTES: Induction of Nrf2-mediated ARE activity in human HepG2-ARE-C8 cells at 0.01 uM after 12 hrs by luciferase reporter gene assay relative to control
# Format: cell-based
Give bare numbers.

For orientation, consider the following solved cases.
O=C(/C=C1\NCC2c3ccccc3CCN2C1=O)c1cccc([N+](=O)[O-])c1 (configuration not stated); 3.28
COc1cccc(C(=O)/C=C2\NCC3c4ccccc4CCN3C2=O)c1 (configuration not stated); 1.48
O=C(/C=C1\NCC2c3ccccc3CCN2C1=O)c1ccccc1Cl (configuration not stated); 1.19
COc1ccc2c(c1)CCN1C(=O)/C(=C/C(=O)c3ccccc3)NCC21 (configuration not stated); 0.65

Value sought for every listed compound: fold change (FC).
1. COc1cccc2c1CCN1C(=O)/C(=C/C(=O)c3ccccc3)NCC21 (configuration not stated)
2. COc1ccc2c(c1)CCN1C(=O)/C(=C/C(=O)c3ccccc3F)NCC21 (configuration not stated)
3. O=C(/C=C1\NCC2c3ccccc3CCN2C1=O)c1ccc(F)c(F)c1 (configuration not stated)
4. COc1ccc2c(c1)C1CN/C(=C\C(=O)c3cccc(F)c3)C(=O)N1CC2 (configuration not stated)
5. Cc1ccc(C(=O)/C=C2\NCC3c4ccccc4CCN3C2=O)cc1 (configuration not stated)
6. O=C(/C=C1\NCC2c3ccccc3CCN2C1=O)c1cccc(F)c1 (configuration not stated)
7. COc1cc2c(cc1OC)C1CN/C(=C\C(=O)c3ccccc3)C(=O)N1CC2 (configuration not stated)

Ans:
1
2.58
2.12
1.31
2.01
2.18
0.86

###

# TESTED_ON: Nuclear factor erythroid 2-related factor 2 (Homo sapiens)
# MEASUREMENT_NOTES: Induction of Nrf2-mediated ARE activity in human HepG2-ARE-C8 cells at 1 uM after 12 hrs by luciferase reporter gene assay relative to control
# Format: cell-based
Hi there, I'd appreciate the recorded fold change (FC) for every entry that follows.
Numbers only.

COc1ccc2c(c1)CCN1C(=O)/C(=C/C(=O)c3ccccc3F)NCC21 (centres undefined); 3.73
C[S+]([O-])CCCCN=C=S (centres undefined); 2.7
COc1cccc(C(=O)/C=C2\NCC3c4ccccc4CCN3C2=O)c1 (centres undefined); 5.68

Here is the next item to consider.
Q: Specify reported fold change (FC) for the molecule shown: COc1cc2c(cc1OC)C1CN/C(=C\C(=O)c3cccc([N+](=O)[O-])c3)C(=O)N1CC2 (centres undefined)
Ans: 1.03
